Origin of values: patent US11771679B2

Molecular target: α-glucosidase (Saccharomyces cerevisiae, UniProt P53341)
Construct: purchased Sigma
Sequence (P53341 whole entry): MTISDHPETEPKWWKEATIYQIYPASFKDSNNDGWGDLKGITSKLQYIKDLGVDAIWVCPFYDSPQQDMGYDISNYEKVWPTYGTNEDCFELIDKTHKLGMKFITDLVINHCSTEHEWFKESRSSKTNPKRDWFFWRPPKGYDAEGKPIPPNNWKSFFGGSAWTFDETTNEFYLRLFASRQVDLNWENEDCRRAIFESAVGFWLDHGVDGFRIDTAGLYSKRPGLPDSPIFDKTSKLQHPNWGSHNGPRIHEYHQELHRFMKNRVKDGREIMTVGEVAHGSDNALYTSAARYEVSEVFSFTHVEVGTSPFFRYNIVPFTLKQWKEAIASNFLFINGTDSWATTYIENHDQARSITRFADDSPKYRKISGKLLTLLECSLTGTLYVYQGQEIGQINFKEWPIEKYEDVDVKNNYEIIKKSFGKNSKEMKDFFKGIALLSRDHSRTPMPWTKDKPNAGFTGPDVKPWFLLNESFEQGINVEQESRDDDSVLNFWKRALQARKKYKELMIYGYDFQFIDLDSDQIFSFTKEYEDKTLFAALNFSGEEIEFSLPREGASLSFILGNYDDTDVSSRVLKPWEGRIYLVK
Experiment: α-glucosidase inhibition test (pNPG substrate, OD 405 nm); CI calculated with CompuSyn (Chou-Talalay)
Type: biochemical
Conditions: read-out: Inhibition rate
Recorded inhibition at 1 µg/mL values for a group of compounds are listed next.
Measure Name: inhibition at 1 µg/mL

{"columns": ["Smiles", "Target Under Test", "Measure Name", "Observed Result"],
 "data": [
  ["O=c1c(O)c(-c2ccc(O)cc2O)oc2cc(O)cc(O)c12", "α-glucosidase (Saccharomyces cerevisiae, UniProt P53341)", "inhibition at 1 µg/mL", "41.2%"],
  ["Oc1cc(O)c2cc(O)c(-c3cc(O)c(O)c(O)c3)[o+]c2c1", "α-glucosidase (Saccharomyces cerevisiae, UniProt P53341)", "inhibition at 1 µg/mL", "50.2%"],
  ["O=c1c(O)c(-c2cc(O)c(O)c(O)c2)oc2cc(O)cc(O)c12", "α-glucosidase (Saccharomyces cerevisiae, UniProt P53341)", "inhibition at 1 µg/mL", "41.2%"],
  ["O=c1cc(-c2ccc(O)c(O)c2)oc2cc(O)cc(O)c12", "α-glucosidase (Saccharomyces cerevisiae, UniProt P53341)", "inhibition at 1 µg/mL", "45.5%"]
]}
